# TARGET DESC: Extracellular calcium-sensing receptor (Homo sapiens)
# Sequence (P41180 whole entry): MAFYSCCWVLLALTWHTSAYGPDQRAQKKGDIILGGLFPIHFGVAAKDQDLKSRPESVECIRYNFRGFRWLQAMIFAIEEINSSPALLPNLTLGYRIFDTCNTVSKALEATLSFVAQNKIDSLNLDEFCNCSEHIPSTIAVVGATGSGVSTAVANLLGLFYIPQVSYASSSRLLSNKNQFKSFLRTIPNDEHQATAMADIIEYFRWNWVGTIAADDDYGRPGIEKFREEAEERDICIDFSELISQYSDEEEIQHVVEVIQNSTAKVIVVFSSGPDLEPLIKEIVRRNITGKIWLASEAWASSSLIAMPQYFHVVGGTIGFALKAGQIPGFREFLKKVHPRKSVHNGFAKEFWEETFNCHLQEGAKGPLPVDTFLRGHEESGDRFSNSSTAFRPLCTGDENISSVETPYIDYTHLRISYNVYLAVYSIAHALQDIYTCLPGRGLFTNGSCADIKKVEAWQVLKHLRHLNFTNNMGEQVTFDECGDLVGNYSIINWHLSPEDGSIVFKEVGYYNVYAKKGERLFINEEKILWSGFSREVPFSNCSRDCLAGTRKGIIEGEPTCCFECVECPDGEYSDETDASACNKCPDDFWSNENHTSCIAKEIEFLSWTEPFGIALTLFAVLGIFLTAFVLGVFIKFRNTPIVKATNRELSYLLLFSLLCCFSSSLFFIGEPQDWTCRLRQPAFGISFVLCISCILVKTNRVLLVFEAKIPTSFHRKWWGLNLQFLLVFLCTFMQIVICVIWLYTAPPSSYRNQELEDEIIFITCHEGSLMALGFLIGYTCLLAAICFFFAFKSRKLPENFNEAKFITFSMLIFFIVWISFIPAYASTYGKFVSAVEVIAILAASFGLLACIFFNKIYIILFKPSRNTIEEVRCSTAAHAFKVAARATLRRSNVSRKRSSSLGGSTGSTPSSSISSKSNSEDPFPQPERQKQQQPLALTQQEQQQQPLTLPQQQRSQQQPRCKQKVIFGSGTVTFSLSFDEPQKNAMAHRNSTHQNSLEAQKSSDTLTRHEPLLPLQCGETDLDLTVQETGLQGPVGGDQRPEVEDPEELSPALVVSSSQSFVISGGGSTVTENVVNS
# ASSAY DETAILS: Inhibition of intracellular calcium release in human TT cells containing calcium-sensing receptor by FLIPR
VALUE TYPE: log10 of IC50 (log10 of the value in µM)
Base-10 log of IC50, unit µM.

INSERT INTO measurements (chemical_string, target_desc, reported_value) VALUES
  ('CC(C)(Cc1ccc2ccccc2c1)NC[C@@H](O)[C@H]1CCCN1Cc1cccc([N+](=O)[O-])c1O', 'Extracellular calcium-sensing receptor (Homo sapiens)', -0.85);

// sample CC(C)(Cc1ccc2ccccc2c1)NC[C@@H](O)COc1ccccc1C#N , its log10 of IC50 was -1.52

// sample CC(C)(Cc1ccc2ccccc2c1)NC[C@@H](O)[C@H]1CCCN1Cc1cccc(F)c1 , its log10 of IC50 was -0.12

// sample CC(C)(Cc1ccc2ccccc2c1)NC[C@@H](O)[C@H]1CCCN1Cc1ccccc1O , its log10 of IC50 was -0.01

// sample CC(C)(Cc1ccc2ccccc2c1)NC[C@@H](O)[C@H]1CCCN1Cc1ccc(C#N)cc1 , its log10 of IC50 was -0.60
